tested on: mice; test: p-phenylquinone-induced abdominal writhing test in mice; type: in vivo, mouse (male Charles River, Swiss Strain); details: Mus musculus, sc, 20 min; subcutaneous; calculated as the free base; 20 min pretreatment, p-phenylquinone 2 mg/Kg i.p.
Structures can show the parent of a compound that is named as a salt.
quantity-measured: log10(ED50) (log10 of the value in mg/kg)
Answers are given as log10 of ED50 in mg/kg.

Solved entries:
compound | log10(ED50)
CSc1cccc2c1CCN(C(=O)Cc1ccc(Cl)c(Cl)c1)C2CN1CCCC1 (stereo not drawn) [Example 32, hydrochloride] | -0.69
CC(=O)Oc1cccc2c1CCN(C(=O)Cc1ccc(Cl)c(Cl)c1)C2CN1CCCC1 (stereo not drawn) [Example 52, hydrochloride] | -2.30
C[C@@H]1CN(C(=O)Cc2ccc(Cl)c(Cl)c2)[C@@H](CN2CCCC2)c2ccccc21 (relative stereo) | -1.44
O=C(Cc1ccc(Cl)c(Cl)c1)N1CCc2c(O)cccc2C1CN1CCCC1 (stereo not drawn) [Example 5] | -2.30

Request: Specify log10(ED50) for C[C@H]1CN(C(=O)Cc2ccc(Cl)c(Cl)c2)[C@@H](CN2CCCC2)c2ccccc21 (relative stereo) and stop.
Response: -0.55

Request: Specify log10(ED50) for O=C(Cc1ccc(C(F)(F)F)cc1)N1CCc2c(O)cccc2C1CN1CCCC1 (stereo not drawn) [Example 34, hydrochloride hemihydrate] and stop.
Response: -2.64

Request: Specify log10(ED50) for C[C@@H]1Cc2ccccc2[C@H](CN2CCCC2)N1C(=O)Cc1ccc(Cl)c(Cl)c1 (relative stereo) and stop.
Response: -1.68

Request: Specify log10(ED50) for CC1Cc2ccccc2C(CN2CCCC2)N1C(=O)Cc1ccc(Cl)c(Cl)c1 (single isomer, unassigned) and stop.
Response: -2.00

Request: Specify log10(ED50) for O=C(Cc1ccc(Cl)c(Cl)c1)N1CCc2c(ccc(O)c2O)C1CN1CCCC1 (stereo not drawn) [Example 40, hydrochloride] and stop.
Response: -0.37

Request: Specify log10(ED50) for CC1c2ccccc2C(CN2CCCCC2)N(C(=O)Cc2ccc(Cl)c(Cl)c2)C1C (single isomer, unassigned; diastereoisomer b) and stop.
Response: -1.42

Request: Specify log10(ED50) for O=C(Cc1ccc(C(F)(F)F)cc1)N1CCc2c(O)cccc2C1CN1CCCCC1 (stereo not drawn) [Example 37, hydrochloride] and stop.
Response: -2.89

Request: Specify log10(ED50) for O=C(Cc1ccc(Cl)c(Cl)c1)N1CCc2c(O)cccc2C1CN1CCCCC1 (stereo not drawn) [Example 38, hydrochloride] and stop.
Response: -2.40

Request: Specify log10(ED50) for CC1CN(C(=O)Cc2ccc(Cl)c(Cl)c2)C(CN2CCCC2)c2ccccc21 (single isomer, unassigned) and stop.
Response: -1.89

Request: Specify log10(ED50) for COc1cccc2c1CCN(C(=O)Cc1ccc(C(F)(F)F)cc1)C2CN1CCCC1 (stereo not drawn) [Example 33, hydrochloride] and stop.
Response: -1.22

Request: Specify log10(ED50) for COc1cccc2c1CCN(C(=O)Cc1ccc(C(F)(F)F)cc1)C2CN1CCCCC1 (stereo not drawn) [Example 35, hydrochloride] and stop.
Response: -0.69

Entry source: patent US4954509A
